Test: Stability of cannabinoid and Vitamin E components of Beverage 2 (AB Red) stored at 8° C. and 21-25° C., LCMSMS over 570 days
Details: 21-25° C., 180 days
Provide the reported Stability of Cannabinoids in AB Red of each item.
Entry format: amount then unit.

Exam item: Any idea what Stability of Cannabinoids in AB Red was measured for CCCCCc1cc2c(c(O)c1C(=O)O)[C@@H]1C=C(C)CC[C@H]1C(C)(C)O2 [D9 THCA, delta-9-tetrahydrocannabinolic acid] ?
Marked response: 1.30 µg/mL

Exam item: Suppose we examine the compound CCCCCc1cc(O)c2c(c1)OC(C)(C)c1ccc(C)cc1-2 [CBN, cannabinol] ; what Stability of Cannabinoids in AB Red value has been reported?
Marked response: 2.70 µg/mL

Exam item: Could you share which Stability of Cannabinoids in AB Red value was measured for CCCc1cc(O)c2c(c1)OC(C)(C)[C@@H]1CCC(C)=C[C@@H]21 [THCV, delta-9-tetrahydrocannabivarin] ?
Marked response: 3.10 µg/mL

Exam item: Please report the recorded Stability of Cannabinoids in AB Red for CCCCCc1cc(O)c2c(c1)OC1(C)CCC3C1C2C3(C)C (stereo not shown) [CBL, cannabicyclol] .
Marked response: 0.50 µg/mL

* * *

Assay: Stability of cannabinoid and Vitamin E components of Beverage 2 (AB Red) stored at 8° C. and 21-25° C., LCMSMS over 570 days
Settings: 8° C., 180 days
value_type: Stability of Cannabinoids in AB Red

Exam item: Param item = CCCCCc1cc2c(c(O)c1C(=O)O)[C@@H]1C=C(C)CC[C@H]1C(C)(C)O2 [D9 THCA, delta-9-tetrahydrocannabinolic acid] ; retrieve measured Stability of Cannabinoids in AB Red.
Marked response: 1.30 µg/mL

Exam item: Stability of Cannabinoids in AB Red for CCCCCc1cc(O)c2c(c1)OC(C)(C)c1ccc(C)cc1-2 ?
Marked response: 2.74 µg/mL

Exam item: Requested field: Stability of Cannabinoids in AB Red. Item: CCCCCc1cc(O)c2c(c1)OC(C)(CCC=C(C)C)C=C2 (stereo not shown)
Marked response: 0.285 µg/mL

Exam item: Recorded Stability of Cannabinoids in AB Red of C=C(C)[C@@H]1CCC(C)=C[C@H]1c1c(O)cc(CCCCC)c(C(=O)O)c1O , please.
Marked response: 1.60 µg/mL

* * *

Can you tell me Stability of Cannabinoids in AB Red for the items I'm about to list?
Assay: Stability of cannabinoid and Vitamin E components of Beverage 2 (AB Red) stored at 8° C. and 21-25° C., LCMSMS over 570 days
Conditions: 8° C., 23 days
State the answer as a number, implicitly in µg/mL.

Exam item: Need Stability of Cannabinoids in AB Red, item CCCCCc1cc(O)c2c(c1)OC(C)(C)[C@@H]1CCC(C)=C[C@@H]21 [D9 THC, delta-9-tetrahydrocannabinol, reference compound]
Marked response: 12.9

Exam item: Consider the compound shown here: CCCCCc1cc(O)c2c(c1)OC1(C)CCC3C1C2C3(C)C (stereo not drawn) What is its recorded Stability of Cannabinoids in AB Red?
Marked response: 0.502

Exam item: What does the record list as Stability of Cannabinoids in AB Red for C=C(C)[C@@H]1CCC(C)=C[C@H]1c1c(O)cc(CCC)cc1O ?
Marked response: 0.194

Exam item: Give the measured Stability of Cannabinoids in AB Red of CCCc1cc(O)c2c(c1)OC(C)(C)[C@@H]1CCC(C)=C[C@@H]21 [THCV, delta-9-tetrahydrocannabivarin] .
Marked response: 3.25

Exam item: Which Stability of Cannabinoids in AB Red is reported for this compound? CCCCCc1cc2c(c(O)c1C(=O)O)[C@@H]1C=C(C)CC[C@H]1C(C)(C)O2 [D9 THCA, delta-9-tetrahydrocannabinolic acid]
Marked response: 1.33

Exam item: Given the compound CCCCCc1cc(O)c2c(c1)OC(C)(C)c1ccc(C)cc1-2 , what is its reported Stability of Cannabinoids in AB Red?
Marked response: 2.79

Exam item: Look at this compound and give its reported Stability of Cannabinoids in AB Red. CCCCCc1cc(O)c2c(c1)OC(C)(CCC=C(C)C)C=C2 (stereo not drawn)
Marked response: 0.287

Exam item: State the recorded Stability of Cannabinoids in AB Red for this entry: C=C(C)[C@@H]1CCC(C)=C[C@H]1c1c(O)cc(CCCCC)c(C(=O)O)c1O
Marked response: 1.63

Exam item: Which Stability of Cannabinoids in AB Red value is on record for CCCCCc1cc(O)c(C/C=C(\C)CCC=C(C)C)c(O)c1 ?
Marked response: 4.66
